assay: CACO cell permeability; type: in vitro ADME; conditions: human, Caco-2, Papp, A->B, CACO-2 cells
ASSAY_READOUT: Papp A→B (×10⁻⁶ cm/s)

CNC(=O)[C@@]12C[C@@H]1[C@@H](n1cnc3c(NC(C4CC4)C4CC4)nc(Cl)nc31)[C@H](O)[C@@H]2O [compound 23] : 4.73

* * *

Sequence of the target: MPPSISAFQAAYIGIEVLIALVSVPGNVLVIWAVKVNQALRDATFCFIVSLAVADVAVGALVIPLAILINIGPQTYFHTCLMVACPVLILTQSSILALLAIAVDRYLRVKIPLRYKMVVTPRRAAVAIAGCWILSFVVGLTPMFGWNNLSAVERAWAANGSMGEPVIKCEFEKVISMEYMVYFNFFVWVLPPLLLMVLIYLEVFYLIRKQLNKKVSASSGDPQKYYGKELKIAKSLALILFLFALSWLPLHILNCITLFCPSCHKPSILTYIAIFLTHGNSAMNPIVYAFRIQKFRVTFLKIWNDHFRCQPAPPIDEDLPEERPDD
ASSAY_READOUT: Ki (nM)

NCCNC(=O)[C@@]12C[C@@H]1[C@@H](n1cnc3c(NC(C4CC4)C4CC4)nc(Cl)nc31)[C@H](O)[C@@H]2O : 2580
